Tested on: A2780 Human Carcinoma Cells
METHOD SUMMARY: Glucose displacement assay (ATP measurement, CellTiter-Glo)
Format: cell-based
EXPERIMENTAL CONDITIONS: ATP measurement in A2780 cells, 0.5 μM rotenone, 10 mM glucose, read-out: IC50 [μM] at 10 mM glucose
Procedure: 2. Glucose Displacement Assay (ATP Measurement) 30,000 A2780 Human Carcinoma Cells are seeded per well in a Greiner 96-well plate. Cells are expanded and cultured in RPMI 1640 medium+GlutaMAX® with 10% FCS and 11 mM glucose, at 37° C. with 5% CO2. After 44 h, culture media is changed and washed once with PBS to starvation media consisting of RPMI 1640 medium with 1% FCS without glucose for 2 hours. […]
REPORTED PROPERTY: IC50 (µM)

Solved entries (count: 3):
[[record]]
compound = "COC(=O)/C=C/c1ccc(COc2cc(OC)c(C(=O)O[C@H]3[C@@H](OC)O[C@H](CO)[C@@H](O)[C@@H]3O)cc2Cl)cc1 [Example 352]"
measurement_unit = "µM"
recorded_value = 1.05

[[record]]
compound = "COc1c(C(=O)N[C@H]2[C@@H](OC)O[C@H](CO)[C@@H](O)[C@@H]2O)cc(Cl)c(OCc2cccc(CNC(=O)OC(C)(C)C)c2)c1Cl [Example 444]"
measurement_unit = "µM"
recorded_value = 8.4

[[record]]
compound = "CCOC(=O)CCCCCn1cc(CCCn2c(COc3c(Cl)cc(C(=O)O[C@H]4[C@@H](OC)O[C@H](CO)[C@@H](O)[C@@H]4O)c(C)c3Cl)nc3ccccc32)nn1 [Example 309]"
measurement_unit = "µM"
recorded_value = 0.71


(I) COc1cc(OCc2cccc(CNC(=O)CCCC(=O)OC(C)(C)C)c2)c(Cl)cc1C(=O)N[C@H]1[C@@H](OC)O[C@H](CO)[C@@H](O)[C@@H]1O [Example 425]
(II) COC(=O)[C@H](CCC(=O)NCc1cccc(COc2c(Cl)cc(C(=O)O[C@H]3[C@@H](OC)O[C@H](CO)[C@@H](O)[C@@H]3O)c(C)c2Cl)c1)NC(=O)OC(C)(C)C [Example 306]
(III) C#CCCCn1c(COc2c(Cl)cc(C(=O)O[C@H]3[C@@H](OC)O[C@H](CO)[C@@H](O)[C@@H]3O)c(C)c2Cl)nc2ccccc21 [Example 212]
(IV) COc1cc(OCc2ccccc2)c(Cl)cc1C(=O)O[C@H]1[C@@H](OC)O[C@H](CO)[C@@H](O)[C@@H]1O [Example 233]
(V) CCOC(=O)CCCn1cc(CCCn2c(COc3c(Cl)cc(C(=O)O[C@H]4[C@@H](OC)O[C@H](CO)[C@@H](O)[C@@H]4O)c(C)c3Cl)nc3ccccc32)nn1 [Example 310]
# input // smallest IC50 at index 0, largest at the end Answer by naming the labels in the order asked.
# output III, V, II, I, IV
(III: 0.288 µM, V: 0.89 µM, II: 7.95 µM, I: 14.5 µM, IV: 21.1 µM)

---

Test system: A2780 Human Carcinoma Cells
METHOD SUMMARY: Glucose displacement assay (ATP measurement, CellTiter-Glo)
Assay type: cell-based
EXPERIMENTAL CONDITIONS: ATP measurement in A2780 cells, 0.5 μM rotenone, 10 mM glucose, read-out: IC50 [μM] at 10 mM glucose
Method: 2. Glucose Displacement Assay (ATP Measurement) 30,000 A2780 Human Carcinoma Cells are seeded per well in a Greiner 96-well plate. Cells are expanded and cultured in RPMI 1640 medium+GlutaMAX® with 10% FCS and 11 mM glucose, at 37° C. with 5% CO2. After 44 h, culture media is changed and washed once with PBS to starvation media consisting of RPMI 1640 medium with 1% FCS without glucose for 2 hours. […]
REPORTED PROPERTY: IC50 (µM)

[[record]]
chemical_structure = "COC(=O)[C@H](CCCCNC(=O)CCCCCNC(=O)CCCCCCC(=O)Nc1cccc(COc2cc(OC)c(C(=O)N[C@H]3[C@@H](OC)O[C@H](CO)[C@@H](O)[C@@H]3O)cc2Cl)c1)NC(=O)OC(C)(C)C"
tested_target = "A2780 Human Carcinoma Cells"
reported_property = "IC50"
measurement_unit = "µM"
recorded_value = 8.6

[[record]]
chemical_structure = "COc1cc(OCc2nc3ccccc3n2CCCCCCCCCCCC(=O)O)c(Cl)cc1C(=O)N[C@H]1[C@@H](OC)O[C@H](CO)[C@@H](O)[C@@H]1O"
tested_target = "A2780 Human Carcinoma Cells"
reported_property = "IC50"
measurement_unit = "µM"
recorded_value = 3.3

[[record]]
chemical_structure = "C#CCCCn1c(COc2c(Cl)cc(C(=O)O[C@H]3[C@@H](OC)O[C@H](CO)[C@@H](O)[C@@H]3O)c(C)c2Cl)nc2cc(OC)ccc21"
tested_target = "A2780 Human Carcinoma Cells"
reported_property = "IC50"
measurement_unit = "µM"
recorded_value = 1.12


(P) CO[C@H]1O[C@H](CO)[C@@H](O)[C@H](O)[C@H]1NC(=O)c1cc(Cl)c(OCc2nc3ccccc3n2CCCCCCNC(=O)[C@H](CC(C)C)N(C)C(=O)OC(C)(C)C)c(Cl)c1C
(Q) C#CCCCn1c(COc2cc(OC)c(C(=O)O[C@H]3[C@@H](OC)O[C@H](CO)[C@@H](O)[C@@H]3O)cc2Cl)nc2ccccc21
(R) C#CCCCn1c(COc2cc(Cl)cc(C(=O)O[C@H]3[C@@H](OC)O[C@H](CO)[C@@H](O)[C@@H]3O)c2)nc2ccccc21
(S) C#CCCCn1c(COc2c(Cl)cc(C(=O)O[C@H]3[C@@H](OC)O[C@H](CO)[C@@H](O)[C@@H]3O)c(C)c2Cl)nc2ccc(OC)cc21
# input // smallest IC50 at index 0, largest at the end Answer by naming the labels in the order asked.
# output S, Q, P, R

(I) CO[C@H]1O[C@H](CO)[C@@H](O)[C@H](O)[C@H]1NC(=O)c1cc(Cl)c(OCc2cccc(NC(=O)OC(C)(C)C)c2)c(Cl)c1C
(II) CO[C@H]1O[C@H](CO)[C@@H](O)[C@H](O)[C@H]1OC(=O)c1cc(Cl)c(OCc2cccc(NC(=O)CCCC(=O)OC(C)(C)C)c2)c(Cl)c1C
# input Hi team, can someone confirm which has the larger IC50: I or II ? Thanks. Please identify the chosen entry by its label.
# output I

---

Tested on: A2780 Human Carcinoma Cells
METHOD SUMMARY: Glucose displacement assay (ATP measurement, CellTiter-Glo)
Format: cell-based
EXPERIMENTAL CONDITIONS: ATP measurement in A2780 cells, 0.5 μM rotenone, 10 mM glucose, read-out: IC50 [μM] at 10 mM glucose
REPORTED PROPERTY: IC50 (µM)

[[record]]
chemical_structure = "COC(=O)c1ccn2cc(COc3cc(OC)c(C(=O)N[C@H]4[C@@H](OC)O[C@H](CO)[C@@H](O)[C@@H]4O)cc3Cl)nc2c1"
measurement_unit = "µM"
recorded_value = 22.4


(1) COc1cc(C(=O)OC[C@H]2O[C@H](OC)[C@H](O)[C@@H](O)[C@@H]2O)cc(Cl)c1OCc1cccc(NC(=O)OC(C)(C)C)c1
(2) COc1cc(C(=O)O[C@H]2[C@@H](OC)O[C@H](CO)[C@@H](O)[C@@H]2O)cc(Cl)c1OCc1cccc(NC(=O)CCc2cc(C)nn2C)c1
# input Hi team, can someone confirm which has the larger IC50: 1 or 2 ? Thanks. Please identify the chosen entry by its label.
# output 1
(1: 33.9 µM, 2: 18.8 µM)

---

Test system: A2780 Human Carcinoma Cells
METHOD SUMMARY: Glucose displacement assay (ATP measurement, CellTiter-Glo)
Assay type: cell-based
EXPERIMENTAL CONDITIONS: ATP measurement in A2780 cells, 0.5 μM rotenone, 10 mM glucose, read-out: IC50 [μM] at 10 mM glucose
REPORTED PROPERTY: IC50 (µM)

[[record]]
chemical_structure = "COc1cc(OCc2cccc(CNC(=O)OC(C)(C)C)c2)c(Cl)cc1C(=O)N[C@H]1[C@H](OC)O[C@H](CO)[C@@H](O)[C@@H]1O"
recorded_value = 11.6

[[record]]
chemical_structure = "COC(=O)[C@H](CCCCNC(=O)CCCC(=O)Nc1cccc(COc2cc(OC)c(C(=O)O[C@H]3[C@@H](OC)O[C@H](CO)[C@@H](O)[C@@H]3O)cc2Cl)c1)NC(=O)OC(C)(C)C"
recorded_value = 13.9


---

Test system: A2780 cells
METHOD SUMMARY: Deoxy-glucose uptake assay in A2780 cells (14C 2-deoxy-D-glucose transport)
Type: cell-based
EXPERIMENTAL CONDITIONS: Homo sapiens, A2780, 20 min
REPORTED PROPERTY: IC50 (µM)
Give the number; µM is assumed, so skip it.

[[record]]
chemical_structure = "COc1cc(C(=O)OC[C@H]2O[C@@H](OCC[Si](C)(C)C)[C@H](O)[C@@H](O)[C@@H]2O)cc(Cl)c1OC(=O)c1ccccc1"
reported_property = "IC50"
recorded_value = 47.4


Consider the record given below.
# input Return IC50 (reported value) for this compound: `COc1cc(C(=O)OC[C@H]2O[C@@H](OCC[Si](C)(C)C)[C@H](O)[C@@H](O)[C@@H]2O)cc(Cl)c1OCCc1ccccc1`
# output 82.5
